// data source = patent US20240309360A1

tested on: EGFP reporter (7×TetO array, basal CMV promoter) in HEK293T reporter cell line; experiment: TAD-seq pooled activation screen of 60-aa fragments fused to PYL1; type: cell-based, human; details: high GFP population (top 1%)
Parameter: Hit high GFP

ATXN7L3-1: 60-aa TAD-seq fragment of ATXN7L3 (MKMEEMSLSGLDNSKLEAIAQEIYADLVEDSCLGFCFEVHRAVKCGYFFLDDTDPDSMKD; listed as Homo sapiens)
hit
ATF6-2: 60-aa TAD-seq fragment of ATF6 (HRLDEDWDSALFAELGYFTDTDELQLEAANETYENNFDNLDFDLDLVPWESDIWDINNQI; listed as Homo sapiens)
hit
C11orf74-1: 60-aa TAD-seq fragment of C11orf74 (MSAHMSGLEIMDEDQLIKDVLDKFLNCHEQTYDEEFLNTFTHLSQDLLLLPGEVEQDVST; listed as Homo sapiens) [Fragment C11orf74-1]
hit

====

test system: EGFP reporter (7×TetO array, basal CMV promoter) in HEK293T reporter cell line; assay: TAD-seq pooled activation screen of 60-aa fragments fused to PYL1; assay type: cell-based, human; settings: log 2 fold change of counts, sorted medium GFP cells (top 2-5%) vs unsorted cells; 100 μM ABA 48 hours
Short version: logFC medium GFP at least 1 is T, less is F.

Decide: is the reported value of logFC medium GFP for NEUROD1-6: 60-aa TAD-seq fragment of NEUROD1 (LRRMKANARERNRMHGLNAALDNLRKVVPCYSKTQKLSKIETLRLAKNYIWALSEILRSG; listed as Homo sapiens) equal to or greater than 1?
F

Param item: NPAS4-37: 60-aa TAD-seq fragment of NPAS4 (DPSEEWGSGDPEAEGPGGAPSPCNNLSPEDHSFLEDLATYETAFETGVSAFPYDGFTDEL; listed as Homo sapiens)
F

Param item: KLF7-2: 60-aa TAD-seq fragment of KLF7 (YFSALPSLEETWQQTCLELERYLQTEPRRISETFGEDLDCFLHASPPPCIEESFRRLDPL; listed as Homo sapiens)
T

Param item: BTBD18-25: 60-aa TAD-seq fragment of BTBD18 (EEYRITSAAATSELEEILDFMLCGSDIEPPIGSLESPGAEGCRTPTYHLTETGKNWIEGE; listed as Homo sapiens)
T

Param item: ZXDC-16: 60-aa TAD-seq fragment of ZXDC (SLVVPSGGRPGPAPAAGVQCGAQGVQVQLVQDDPSGEGVLPSARGPATFLPFLTVDLPVY; listed as Homo sapiens)
F

Param item: SPDYE4-3: 60-aa TAD-seq fragment of SPDYE4; SPDYE4 activation domain (DPSPQPQSLGLKRKSEWSDESEEELEEELELERAPEPEDTWVVETLCGLKMKLKRKRASS; listed as Homo sapiens)
T

Param item: DDIT3-1: 60-aa TAD-seq fragment of DDIT3 (MAAESLPFSFGTLSSWELEAWYEDLQEVLSSDENGGTYVSPPGNEEEESKIFTTLDPASL; listed as Homo sapiens)
T

Param item: VP64: synthetic transactivator, four tandem copies of the viral VP16 transactivation motif (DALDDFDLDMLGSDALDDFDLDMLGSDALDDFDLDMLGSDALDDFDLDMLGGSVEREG; listed as Homo sapiens) [reference compound]
T

Param item: FAM90A1-19: 60-aa TAD-seq fragment of FAM90A1 (RQPPHSRPCLPTAQACTMSHHPAASHDGAQPLRVLFRRLENGRWSSSLLTAPSFHSPEKP; listed as Homo sapiens)
T
